# Test system: K4 kissing-loop RNA reporter;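 also: bound reporter read as fluorescence of individual clusters on recovered sequencing chips by microscopy, with normalized cluster intensities fitted with a binding model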
# experiment: apparent KD of K4 kissing-loop reporter; higher = weaker reporter binding
# condition-notes: Eterna round: R107; input ligand: arginine 13.2 mM
Recorded apparent KD of K4 kissing-loop reporter values for a group of sequences are listed next.
observation-type: apparent KD of K4 kissing-loop reporter (nM)

| sequence-code | observation-type | measured-value |
| --- | --- | --- |
| UGGGAUGUUAAAGGAUAUAGAAAGUGAUAUUAGAAAGUGAGUGAUGUUGAUGUAAGUGAUGAUAUGUUAGAAGGUUAACAAAACG [abcd] | apparent KD of K4 kissing-loop reporter | 363 |
| UGCCGGGCUGUACGUUACUUAAAUCGCGAUACCAGCGAUACAAUCCGCCCUUGGCAGCGCAGUGAUGUUGCGCGGUCAUUACGGG [theeternabot_exclusion_KL_Theo_A_27] | apparent KD of K4 kissing-loop reporter | 90.5 |
| AGGAUGUAGUGAUGUUAUAUAAGAAGUAAACGAGGACCGGUACGGCCGCCACUCGAAGCGGCUACUAGCGCGCCGCGAGGCGCGC [ExTryptoA.Cb] | apparent KD of K4 kissing-loop reporter | 391 |
| UGAUACCAGACUGAUACCAGCCACAGAGUCAAGACUCUGAUAAAGGUAACCAGUGAUGUUGGCCCUUGGCAGCAGUCUGGUAUCU [TheoBX 16 #SwitchBubble #StaticStem] | apparent KD of K4 kissing-loop reporter | 164 |
| GAUGGUCGAGAAGGAUAUGUGACUACCAGAAGGAAAUUCAGUGAUGUUGAUUGUCGCGAGCAGGAGACAGAAGGUCUCAGACAUA [theeternabot_exclusion_KL_FMN_B_5] | apparent KD of K4 kissing-loop reporter | 265 |
| ACGCGCGCGAGUGAUGUUCGGAGCGGCUGGCAGGAUAUGUAGCAAUGCAGAAGGGUCGUGGCGCGUCCAGGGUAACCUGGACGCG [#2 Exclusion - FMN A Attempt #26 (HarryS)] | apparent KD of K4 kissing-loop reporter | 229 |
| GGUAUCUAUACAGAUACCAGUCGUACAGCACCAUUACAGGUUAGUGAUGUUAACCUGUACGACCCUUGGCAGCUGUAUUAUAAUA [#15 K4 Theophylline B Exclusion] | apparent KD of K4 kissing-loop reporter | 88.7 |
| UGGGUGUAGUGAUGUUAUAUAGAGAGUGAUACCAGCUUAGAGAGAAGCCCUUGGCAGCAUAGAAGAGUAUCAUUGGAGGAGGAGG [ExTheophyl.Ay] | apparent KD of K4 kissing-loop reporter | 527 |
| AGGCACGAGCAAGGAUAUUGAGUAGAGUGAUGUUCUGCCUGGGUUGGCUCGGAAGAGCCUUCUCAGCGAGAAGGUGCUCGUGCCU [#2 Same State - FMN A Attempt #24 (HarryS)] | apparent KD of K4 kissing-loop reporter | 475 |
| AGGAUCCGUCGACAAAAGUCGACAUAAUCCGAGGAUAUGACGAAAGUCAGAAGGUGGACAUAAGUCCAGUGAUGUUGGAGGAUCC [FmnA 17 #SwitchBubble #K4Late] | apparent KD of K4 kissing-loop reporter | 218 |
| UGCGCUGCCUGAGGAUAUAGAAACGAGUGAUGUUCGUGGAUAAGAGCCAGUGAUGUUGGGUUAUUUCUAGAAGGCAGGCAAAGUA [Exclusion FMN B GF7] | apparent KD of K4 kissing-loop reporter | 98.2 |

Hey, just so you know, these numbers are from the supplement of paper PMC9170038.
